Provenance of the data: BigSolDB 2.1

Condition notes: in n-propanol, 308.15 K
Assay metric: solubility (mole fraction)

O=C(NC(Cc1cc(=O)[nH]c2ccccc12)C(=O)O)c1ccc(Cl)cc1 (stereo unspecified): 0.000107

----------
Condition notes: in n-propanol, 298.15 K
Assay metric: solubility (mole fraction)

O=C(NC(Cc1cc(=O)[nH]c2ccccc12)C(=O)O)c1ccc(Cl)cc1 (stereo unspecified): 8.1e-05

----------
Condition notes: in propylene glycol, 313.15 K
Assay metric: solubility (mole fraction)

O=C(NC(Cc1cc(=O)[nH]c2ccccc12)C(=O)O)c1ccc(Cl)cc1 (stereo unspecified): 0.000319

----------
Condition notes: in ethanol, 303.15 K
Assay metric: solubility (mole fraction)

O=C(NC(Cc1cc(=O)[nH]c2ccccc12)C(=O)O)c1ccc(Cl)cc1 (stereo unspecified): 0.000107

----------
Condition notes: in isopropanol, 288.15 K
Assay metric: solubility (mole fraction)

O=C(NC(Cc1cc(=O)[nH]c2ccccc12)C(=O)O)c1ccc(Cl)cc1 (stereo unspecified): 3.87e-05

----------
Condition notes: in ethanol, 288.15 K
Assay metric: solubility (mole fraction)

O=C(NC(Cc1cc(=O)[nH]c2ccccc12)C(=O)O)c1ccc(Cl)cc1 (stereo unspecified): 7.65e-05

----------
Condition notes: in n-propanol, 313.15 K
Assay metric: solubility (mole fraction)

O=C(NC(Cc1cc(=O)[nH]c2ccccc12)C(=O)O)c1ccc(Cl)cc1 (stereo unspecified): 0.000123

----------
Condition notes: in isopropanol, 283.15 K
Assay metric: solubility (mole fraction)

O=C(NC(Cc1cc(=O)[nH]c2ccccc12)C(=O)O)c1ccc(Cl)cc1 (stereo unspecified): 3.02e-05

----------
Condition notes: in isopropanol, 318.15 K
Assay metric: solubility (mole fraction)

O=C(NC(Cc1cc(=O)[nH]c2ccccc12)C(=O)O)c1ccc(Cl)cc1 (stereo unspecified): 0.000129

----------
Condition notes: in water, 278.15 K
Assay metric: solubility (mole fraction)

O=C(NC(Cc1cc(=O)[nH]c2ccccc12)C(=O)O)c1ccc(Cl)cc1 (stereo unspecified): 3.46e-07

----------
Condition notes: in water, 303.15 K
Assay metric: solubility (mole fraction)

O=C(NC(Cc1cc(=O)[nH]c2ccccc12)C(=O)O)c1ccc(Cl)cc1 (stereo unspecified): 1.08e-06

----------
Condition notes: in ethanol, 318.15 K
Assay metric: solubility (mole fraction)

O=C(NC(Cc1cc(=O)[nH]c2ccccc12)C(=O)O)c1ccc(Cl)cc1 (stereo unspecified): 0.000143

----------
Condition notes: in ethanol, 308.15 K
Assay metric: solubility (mole fraction)

O=C(NC(Cc1cc(=O)[nH]c2ccccc12)C(=O)O)c1ccc(Cl)cc1 (stereo unspecified): 0.000118

----------
Condition notes: in propylene glycol, 308.15 K
Assay metric: solubility (mole fraction)

O=C(NC(Cc1cc(=O)[nH]c2ccccc12)C(=O)O)c1ccc(Cl)cc1 (stereo unspecified): 0.000293

----------
Condition notes: in water, 318.15 K
Assay metric: solubility (mole fraction)

O=C(NC(Cc1cc(=O)[nH]c2ccccc12)C(=O)O)c1ccc(Cl)cc1 (stereo unspecified): 1.87e-06

----------
Condition notes: in propylene glycol, 303.15 K
Assay metric: solubility (mole fraction)

O=C(NC(Cc1cc(=O)[nH]c2ccccc12)C(=O)O)c1ccc(Cl)cc1 (stereo unspecified): 0.000269

----------
Condition notes: in n-propanol, 288.15 K
Assay metric: solubility (mole fraction)

O=C(NC(Cc1cc(=O)[nH]c2ccccc12)C(=O)O)c1ccc(Cl)cc1 (stereo unspecified): 6e-05

----------
Condition notes: in isopropanol, 303.15 K
Assay metric: solubility (mole fraction)

O=C(NC(Cc1cc(=O)[nH]c2ccccc12)C(=O)O)c1ccc(Cl)cc1 (stereo unspecified): 7.31e-05

----------
Condition notes: in propylene glycol, 278.15 K
Assay metric: solubility (mole fraction)

O=C(NC(Cc1cc(=O)[nH]c2ccccc12)C(=O)O)c1ccc(Cl)cc1 (stereo unspecified): 0.000182

----------
Condition notes: in isopropanol, 298.15 K
Assay metric: solubility (mole fraction)

O=C(NC(Cc1cc(=O)[nH]c2ccccc12)C(=O)O)c1ccc(Cl)cc1 (stereo unspecified): 5.92e-05

----------
Condition notes: in isopropanol, 313.15 K
Assay metric: solubility (mole fraction)

O=C(NC(Cc1cc(=O)[nH]c2ccccc12)C(=O)O)c1ccc(Cl)cc1 (stereo unspecified): 0.000107

----------
Condition notes: in water, 313.15 K
Assay metric: solubility (mole fraction)

O=C(NC(Cc1cc(=O)[nH]c2ccccc12)C(=O)O)c1ccc(Cl)cc1 (stereo unspecified): 1.56e-06

----------
Condition notes: in ethanol, 293.15 K
Assay metric: solubility (mole fraction)

O=C(NC(Cc1cc(=O)[nH]c2ccccc12)C(=O)O)c1ccc(Cl)cc1 (stereo unspecified): 8.61e-05

----------
Condition notes: in propylene glycol, 298.15 K
Assay metric: solubility (mole fraction)

O=C(NC(Cc1cc(=O)[nH]c2ccccc12)C(=O)O)c1ccc(Cl)cc1 (stereo unspecified): 0.000247

----------
Condition notes: in ethanol, 283.15 K
Assay metric: solubility (mole fraction)

O=C(NC(Cc1cc(=O)[nH]c2ccccc12)C(=O)O)c1ccc(Cl)cc1 (stereo unspecified): 6.92e-05

----------
Condition notes: in propylene glycol, 293.15 K
Assay metric: solubility (mole fraction)

O=C(NC(Cc1cc(=O)[nH]c2ccccc12)C(=O)O)c1ccc(Cl)cc1 (stereo unspecified): 0.000225

----------
Condition notes: in ethanol, 278.15 K
Assay metric: solubility (mole fraction)

O=C(NC(Cc1cc(=O)[nH]c2ccccc12)C(=O)O)c1ccc(Cl)cc1 (stereo unspecified): 6.26e-05

----------
Condition notes: in propylene glycol, 283.15 K
Assay metric: solubility (mole fraction)

O=C(NC(Cc1cc(=O)[nH]c2ccccc12)C(=O)O)c1ccc(Cl)cc1 (stereo unspecified): 0.000192

----------
Condition notes: in ethanol, 313.15 K
Assay metric: solubility (mole fraction)

O=C(NC(Cc1cc(=O)[nH]c2ccccc12)C(=O)O)c1ccc(Cl)cc1 (stereo unspecified): 0.000131

----------
Condition notes: in n-propanol, 293.15 K
Assay metric: solubility (mole fraction)

O=C(NC(Cc1cc(=O)[nH]c2ccccc12)C(=O)O)c1ccc(Cl)cc1 (stereo unspecified): 7.03e-05

----------
Condition notes: in water, 293.15 K
Assay metric: solubility (mole fraction)

O=C(NC(Cc1cc(=O)[nH]c2ccccc12)C(=O)O)c1ccc(Cl)cc1 (stereo unspecified): 6.84e-07

----------
Condition notes: in n-propanol, 303.15 K
Assay metric: solubility (mole fraction)

O=C(NC(Cc1cc(=O)[nH]c2ccccc12)C(=O)O)c1ccc(Cl)cc1 (stereo unspecified): 9.38e-05
